Kd overview
molecular target: T1, His9G-tagged human CD27 recombinant protein (human, UniProt P26842 21-191); assay: SPR Biacore 4000, antibody captured on anti-human Fc, His9G-tagged CD27 injected, 1:1 fit;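 note: Double-referenced SPR (blank anti-Fc surface and buffer injection subtracted), KD derived from association and dissociation rate constants, with human and cynomolgus CD27 as analytes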
T1 construct: In-house, transient transfection of HEK293 cells; also called Human CD27/His
observation type: Kd (nM)

# binder, result unit, experimental value
rows = [
    ("hCD27.131A VH6VL8 huIgG4 (antibody, V domains shown) VH: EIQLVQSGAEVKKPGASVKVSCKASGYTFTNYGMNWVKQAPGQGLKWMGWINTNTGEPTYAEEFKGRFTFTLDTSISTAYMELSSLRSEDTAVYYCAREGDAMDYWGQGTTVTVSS VL: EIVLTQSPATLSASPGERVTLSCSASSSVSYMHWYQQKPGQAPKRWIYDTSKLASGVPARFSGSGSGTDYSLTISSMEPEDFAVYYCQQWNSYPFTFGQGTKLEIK", "nM", 99.1),
    ("hCD27.131A VH9VL9 huIgG1 (antibody, V domains shown) VH: EIQLVQSGAEVKKPGASVKVSCKASGYTFTNYGMNWVRQAPGQGLKWMGWINTNTGEPTYAEEFKGRFTFTLDTSASTAYMELSSLRSEDTAVYYCAREGDAMDYWGQGTTVTVSS VL: DIQLTQSPSTLSASVGDRVTITCSASSSVSYMHWYQQKPGKAPKRWIYDTSKLASGVPARFSGSGSGTDYTLTISSLQPEDFATYYCQQWNSYPFTFGQGTKLEIK", "nM", 62.2),
]
